test: NCI Yeast Anticancer Drug Screen. Data for the bub3 strain (AID 167); conditions: S. cerevisiae bub3 mutant strain, at 5.0 µM (retest, dose inferred, filed as 0.5), stronger effect = higher value
About 79,000 compounds went through this panel and 15% of them were active in at least one assay; those are over-represented in the sample as a whole.
endpoint_name: growth inhibition (%)
Answers are plain numbers, in %.

The cases that follow already have their growth inhibition on record.
compound="COc1ccc(C(C)c2cc3c(cc2OC(C)O)OCO3)cc1 (stereo not drawn)" endpoint_name="growth inhibition" recorded_measurement=7
compound="COC(=O)C(Cc1c[nH]c2ccccc12)N1CN(C)c2ccccc2C1=O (stereo not drawn)" endpoint_name="growth inhibition" recorded_measurement=13
compound=Oc1c2c(c(O)c3ccccc13)C1(N=N2)c2ccccc2Oc2ccccc21 endpoint_name="growth inhibition" recorded_measurement=21
compound=CCOC(=O)/C(=C\c1cccc(C)c1)C(C)=O endpoint_name="growth inhibition" recorded_measurement=55
compound=Nc1cc(Cl)ccc1Nc1ccccc1 endpoint_name="growth inhibition" recorded_measurement=20
compound=CCN(CC)CCNc1ccc2nc(C)n3c4ccc(O)cc4c(=O)c1c23 endpoint_name="growth inhibition" recorded_measurement=39
compound=CCOC(=O)Nc1ccc(C)c(NC(=O)OCC)c1 endpoint_name="growth inhibition" recorded_measurement=35
compound=CC(=O)Oc1ccc2c(c1)Cc1cc(N3C(=O)C=CC3=O)ccc1-2 endpoint_name="growth inhibition" recorded_measurement=8

Dear colleague, could you send me growth inhibition for each of the items below? Thanks.
1. NC(N)=NS(=O)(=O)c1ccc(Nc2c3ccccc3nc3c(C(=O)NC(CO)(CO)CO)cccc23)cc1
2. Nc1ccc(/C=C/c2ccc3cccnc3c2)cc1
3. O=C1c2cccc3cccc(c23)C(=O)N1CCNCCN1C(=O)c2cccc3cccc(c23)C1=O
4. Cc1cccc(C)c1NC(=O)C(C#N)C1=C(Cl)C(=O)c2ccccc2C1=O (stereo not drawn)

[reply]
1. -11
2. 24
3. 2
4. 99

# return growth inhibition for each item in the list
1. Cc1cc(Cl)ccc1NC(=O)/C(Cl)=C(/Cl)C(=O)O
2. COC1=CCC23C(=O)C=CC(=O)C2(C1)C(=O)c1ccccc1C3=O (stereo not drawn)
3. O=C(Cc1ccccc1)NNc1nc(NNC(=O)c2ccncc2)nc(Nc2ccc([N+](=O)[O-])cc2)n1
4. COc1cc2c(cc1OC)[C@@H](Nc1ccc(C#N)cc1)C1COC(=O)[C@@H]1C2c1cc(OC)c(O)c(OC)c1 (stereo partly drawn)
5. COc1ccc2c3c1OC(C)C31CC(=O)CCC1CC2 (stereo not drawn)

[reply]
1: 3; 2: 2; 3: 6; 4: -54; 5: 8

I would be grateful if you could provide growth inhibition for each of the following entries.
1. O=C1C=C(NCCc2cc(Br)c(O)c(Br)c2)C(=O)c2ncccc21
2. CCOP(=O)(OCC)/C(C#N)=C/c1cccc(Oc2ccccc2)c1
3. O=C(O)c1cc2c(cc1S(=O)(=O)O)C1C(C3C2C2(Cl)C(Cl)=C(Cl)C3(Cl)C2(Cl)Cl)C2(Cl)C(Cl)=C(Cl)C1(Cl)C2(Cl)Cl (stereo not drawn)
4. NNc1ccccc1-c1nc2ccccc2[nH]1

[reply]
1: 12; 2: 22; 3: 2; 4: -65

Would you mind giving growth inhibition for every compound in the list below?
1. CC1(C2CC2)C(C#N)(C#N)C1(C#N)C#N
2. O=C1Nc2ccc(Br)cc2C1=Nc1cccnc1
3. CCOc1ccc2nc3ccccc3c(N)c2c1
4. O=c1[nH]c2c([N+](=O)[O-])cccc2c2ccccc12
5. CCCCCCCSCC1C(=O)C23C(O)C1CCC2C12COC3(O)C(O)C1C(C)(C)CCC2O (stereo not drawn)
6. O=C(O)c1ccccc1C(=O)OC1CCc2ccccc2C1 (stereo not drawn)

[reply]
1. -57
2. 33
3. 14
4. 3
5. 65
6. -1

Count: 6. Required value per item: growth inhibition.
1. O=C(CCCN1CCC(Nc2ccc(F)cc2)(c2nnnn2C2CCCCC2)CC1)c1ccc(F)cc1
2. CCN(CC)CCNc1ccc(C)c2sc3ccc(O)cc3c(=O)c12
3. C[n+]1c(-c2ccc(/C=N/NC(=O)c3ccc(C(=O)N/N=C/c4ccc(-c5cn6ccccc6[n+]5C)cc4)cc3)cc2)cn2ccccc21
4. C=CCNC1=C2C[C@@H](C)C[C@H](OC)[C@H](O)[C@@H](C)/C=C(\C)[C@H](OC(N)=O)[C@@H](OC)/C=C\C=C(/C)C(=O)NC(=CC1=O)C2=O
5. COc1ccc2cc3c4cc5c(cc4cc[n+]3cc2c1OC)OCO5
6. C=C(C(=O)OC)N1C(=O)CC(C)C1=O (stereo not drawn)

[reply]
1. -13
2. -1
3. -1
4. 35
5. 43
6. 21

Give measured growth inhibition for every item shown.
1. O=[N+]([O-])c1cn[n+]([O-])c2ccccc12
2. Clc1ccc(/C(=C\c2ccccc2)Cn2ccnc2)cc1
3. O=C(O)C(=Cc1ccc(-c2ccccc2)cc1)C(=O)O
4. CCC(/C=C/c1ccccc1)=N\Nc1ccc(Cl)c(Cl)c1
5. Clc1nc(Cl)nc(Nc2cccc3ccccc23)n1
6. N#CCCC1C(C#N)C2(Cl)CC1(Cl)C(Cl)=C2Cl (stereo not drawn)

[reply]
1. -28
2. 51
3. -10
4. 2
5. 64
6. -8

I would be grateful if you could provide growth inhibition for each of the following entries.
1. CSc1nc(-c2ccccc2)nc(=[N+]2CCOCC2)s1
2. Cc1ccc(NC(=O)CCC(=O)C(C)C(=O)c2ccccc2)c(C)c1 (stereo not drawn)
3. CC(=O)NC(c1nc2cc(C)c(C)cc2[nH]1)c1nc2cc(C)c(C)cc2[nH]1

[reply]
1: 21; 2: -15; 3: 16

[ask] Quickly give me recorded growth inhibition for NC(=S)N/N=C1\c2ccccc2CCC1CCC1(O)CCc2ccccc2C1=O (stereo not drawn)
[reply] 17

====

assay: NCI Yeast Anticancer Drug Screen. Data for the rad50 strain (AID 155);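 note: 0% = growth of vehicle-only cultures of the same strain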; details: S. cerevisiae rad50 strain growth inhibition; at 1.2 µM; stronger effect = higher value
Compounds without any hit were thinned out: in the full panel of roughly 79,000, 15% have a hit.
Give measured growth inhibition for each item. Keep answers brief.
Answers are plain numbers, in %.

compound="CC(C)[Si]1(C(C)C)OCC2OC(n3cnc4c(N)ncnc43)C(N)C2O[Si](C(C)C)(C(C)C)O1 (stereo not given)" result_unit=% recorded_measurement=7

Working through the 4 compounds below one at a time, give growth inhibition for each.
1. CCCCCCNCCCNc1c2cc(OC)ccc2nc2cccc([N+](=O)[O-])c12
2. CC(=O)O/N=C1C=C/C(=C(/C#N)c2ccccc2)C=C/1C
3. CN(C)CCNc1ccc2ncn3c4ccc(O)cc4c(=O)c1c23
4. CCCCOc1ccc2nc(C)cc(N=[N+]=[N-])c2c1

[reply]
5
5
-14
4

====

So I've got a bunch of compounds here, and I need their growth inhibition values.
assay: NCI Yeast Anticancer Drug Screen. Data for the wt2 strain (AID 169);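 note: 0% = growth of vehicle-treated yeast cultures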; conditions: S. cerevisiae wt2 strain growth inhibition; at 1.2 µM; stronger effect = higher value
The panel holds about 79,000 compounds, 15% with a hit somewhere; the sample as a whole holds those more often.
Numbers only, in %.

compound=O=C(Nc1cccs1)c1ccccc1 endpoint_name="growth inhibition" recorded_measurement=-1
compound=CCCN=Cc1cc(Cc2ccc(O)c(C=NCCC)c2)ccc1O endpoint_name="growth inhibition" recorded_measurement=29
compound=O=[N+]([O-])c1ccc(C(c2c[nH]c3ccccc23)c2c[nH]c3ccccc23)cc1 endpoint_name="growth inhibition" recorded_measurement=9
compound=Fc1cc(F)c(F)c(S)c1F endpoint_name="growth inhibition" recorded_measurement=-48
compound=O=C1c2ccccc2-c2ccc(N=Cc3ccccc3)cc21 endpoint_name="growth inhibition" recorded_measurement=5
compound="CCC1(O)C(=O)OCc2c1cc1n(c2=O)Cc2cc3c(N)cccc3nc2-1 (stereo unspecified)" endpoint_name="growth inhibition" recorded_measurement=-16
compound=O=C1Nc2ccc(Br)cc2C1=Nc1cccnc1 endpoint_name="growth inhibition" recorded_measurement=-21
compound=O=C1c2cccc3cccc(c23)C(=O)N1CCNCCN1C(=O)c2cccc3cccc(c23)C1=O endpoint_name="growth inhibition" recorded_measurement=0

I need growth inhibition for every entry listed below, if you could help.
1. c1ccc([P+](CCN2Cc3ccccc3C2)(c2ccccc2)c2ccccc2)cc1
2. COc1ccc2c3c1OC(C)C31CC(=O)CCC1CC2 (stereo unspecified)
3. CCCCCc1c(CCCC)c(=O)[nH]c2cc(CNCC(OC)OC)ccc12

[reply]
[-45, -8, 7]

====

For each of the molecules below, state its growth inhibition.
test: NCI Yeast Anticancer Drug Screen. Data for the sgs1 strain (AID 173);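 note: 0% = growth of vehicle-only control cultures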; details: S. cerevisiae sgs1 mutant, at 11.0 µM, stronger effect = higher value
About 79,000 compounds went through this panel and 15% of them were active in at least one assay; those are over-represented in the sample as a whole.
Answers are plain numbers, in %.

Below, 5 molecules whose answers are already recorded.
molecule="CC(C)(CN1CCCCC1)C(=O)CC(SCCS(=O)(=O)O)c1ccccc1 (stereo unspecified)" recorded_measurement=7
molecule=CCCCCc1c(CCCC)c(=O)[nH]c2cc(CNCC(OC)OC)ccc12 recorded_measurement=69
molecule=C/C(=N/NC(=S)Nc1ccccc1C)c1ccccn1 recorded_measurement=-5
molecule=C=COC(=O)N[C@H]1CCc2cc(OC)c(OC)c(OC)c2-c2ccc(SC)c(=O)cc21 recorded_measurement=1
molecule=Cc1cccc2c(Cl)c3cccc(C)c3nc12 recorded_measurement=-4

Then this molecule:
[ask] Determine from records and report growth inhibition for O=C1c2ccccc2C(=O)c2c(O)c(NCCNCCO)cc(O)c21
[reply] 48

Sourced from PubChem BioAssay (NCI)
